Biological target: Glutamate receptor ionotropic, NMDA 2B (Rattus norvegicus)
Assay: Displacement of [3H]ifenprodil from NMDA NR2B receptor in Wistar rat cerebral cortex membrane at 10 uM
Assay type: tissue-based
Measured Parameter: Activity (%)
Numbers only; they are read as %.

Entry under review: O=C(CN1CCC(Cc2ccccc2)CC1)c1c[nH]c2ccc(O)cc12 . Reported Activity? 92

Entry under review: O=C(CN1CCC(Cc2ccccc2)CC1)c1c[nH]c2ccccc12 . Reported Activity? 89

Entry under review: O=C(C(=O)N1CCC(Cc2ccccc2)CC1)c1c[nH]c2ccc(O)cc12 . Reported Activity? 77

Entry under review: O=C(C(=O)N1CCC(Cc2ccccc2)CC1)c1c[nH]c2ccccc12 . Reported Activity? 36

====

System: Mus musculus
Test: Anticonvulsant activity in ip dosed DBA/2 mouse assessed as inhibition of auditory stimulation-induced tonic seizures administered 30 mins before auditory stimulation
Format: functional
Details: DBA/2, ip
What ED50 was measured for each of the following?
Numbers only; they are read as µmol/kg.

Entry under review: C[C@@H](CN1CCC(Cc2ccccc2)CC1)[C@@H](O)c1ccc(O)cc1 . Reported ED50? 10.6

Entry under review: O=C(Cc1c[nH]c2ccccc12)N1CCC(Cc2ccccc2)CC1 . Reported ED50? 39.2

Entry under review: COc1ccc2[nH]cc(CC(=O)N3CCC(Cc4ccccc4)CC3)c2c1 . Reported ED50? 34.4

Entry under review: O=C(CN1CCC(Cc2ccccc2)CC1)c1c[nH]c2ncccc12 . Reported ED50? 32.5

Entry under review: O=C(CCc1c[nH]c2ccccc12)N1CCC(Cc2ccccc2)CC1 . Reported ED50? 57.6

====

Test system: Mus musculus
Assay: Anticonvulsant activity in ip dosed DBA/2 mouse assessed as inhibition of auditory stimulation-induced tonic seizures administered 30 mins before auditory stimulation
Assay type: functional
Details: DBA/2, ip
What ED50 was measured for each of the following?
Numbers only; they are read as µmol/kg.

Entry under review: O=C(CN1CCC(Cc2ccccc2)CC1)c1c[nH]c2ccc(O)cc12 . Reported ED50? 6.48

Entry under review: O=C(C(=O)N1CCC(Cc2ccccc2)CC1)c1c[nH]c2ccc(Br)cc12 . Reported ED50? 47.9

Entry under review: O=C(C(=O)N1CCC(Cc2ccccc2)CC1)c1c[nH]c2ccccc12 . Reported ED50? 0.95

Entry under review: O=C(CN1CCC(Cc2ccccc2)CC1)c1c[nH]c2ccc(Br)cc12 . Reported ED50? 49.7

Entry under review: COc1ccc2[nH]cc(C(=O)CN3CCC(Cc4ccccc4)CC3)c2c1 . Reported ED50? 36.5

Entry under review: COc1ccc2[nH]cc(C(=O)C(=O)N3CCC(Cc4ccccc4)CC3)c2c1 . Reported ED50? 78.8

Entry under review: O=C(CN1CCC(Cc2ccccc2)CC1)c1c[nH]c2ccccc12 . Reported ED50? 8.71

Entry under review: O=C(Cc1c[nH]c2ccc(Br)cc12)N1CCC(Cc2ccccc2)CC1 . Reported ED50? 5.42

Entry under review: O=C(Cc1c[nH]c2ccc(O)cc12)N1CCC(Cc2ccccc2)CC1 . Reported ED50? 13.9
